These measurements were taken from patent US8969325B2.

# target.entity: human TRPV1 (Homo sapiens (Human), UniProt Q8NER1)
# Sequence (Q8NER1 whole entry): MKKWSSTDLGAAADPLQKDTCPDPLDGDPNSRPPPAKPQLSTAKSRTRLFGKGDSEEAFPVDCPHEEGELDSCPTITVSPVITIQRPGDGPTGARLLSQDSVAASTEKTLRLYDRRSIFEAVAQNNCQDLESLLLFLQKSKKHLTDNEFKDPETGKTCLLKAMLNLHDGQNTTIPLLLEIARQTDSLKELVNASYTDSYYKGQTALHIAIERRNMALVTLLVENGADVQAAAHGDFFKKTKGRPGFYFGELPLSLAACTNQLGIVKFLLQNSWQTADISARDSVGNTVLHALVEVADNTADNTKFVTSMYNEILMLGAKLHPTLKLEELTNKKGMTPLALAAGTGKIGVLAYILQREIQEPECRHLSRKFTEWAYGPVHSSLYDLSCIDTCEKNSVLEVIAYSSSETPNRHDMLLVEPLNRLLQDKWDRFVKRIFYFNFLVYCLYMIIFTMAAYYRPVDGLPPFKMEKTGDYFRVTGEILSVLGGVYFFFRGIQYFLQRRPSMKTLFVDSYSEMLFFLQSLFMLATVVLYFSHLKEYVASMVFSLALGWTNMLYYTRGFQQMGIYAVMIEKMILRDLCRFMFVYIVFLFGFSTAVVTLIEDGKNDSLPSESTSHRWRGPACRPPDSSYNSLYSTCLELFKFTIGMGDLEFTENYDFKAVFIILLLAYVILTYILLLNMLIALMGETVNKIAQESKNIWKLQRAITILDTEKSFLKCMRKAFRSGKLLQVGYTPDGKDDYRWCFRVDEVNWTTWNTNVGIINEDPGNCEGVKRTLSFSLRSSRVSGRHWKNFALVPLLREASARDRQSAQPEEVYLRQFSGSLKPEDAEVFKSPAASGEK
# assay.procedure: Capsaicin Activation Assay (intracellular Ca2+, FLIPR)
# test.context: recombinant HEK293 cells expressing hTRPV1, 50 nM capsaicin
# Experimental: (Logan, Utah). Dulbecco's phosphate-buffered saline (D-PBS) (with 1 mg/mL glucose and 3.6 mg/l Na pyruvate, without phenol red), L-glutamine, hygromycin B, and Lipofectamine® were obtained from Life Technologies (Grand Island, N.Y.). G418 sulfate was obtained from Calbiochem-Novabiochem Corp. (San Diego, Calif.). […] (St. Louis, Mo.). […] Fluorescence readings were made at 1 to 5 second intervals over the course of the experimental run.
IC50 vs 200 nM: less than gives y; not less than gives n.

Prompt line: Answer whether the compound CCC1(CC)C[C@@H](NC(=O)Nc2ccc3c(c2)NC(=O)CO3)c2ccccc2O1 has IC50 strictly less than 200 nM
Response line: y

Prompt line: Further, for COCC1(COC)C[C@@H](NC(=O)Nc2ccc3c(c2)NC(=O)N(C)C3)c2cc(F)ccc2O1 ?
Response line: n

Prompt line: Further, for CC1(C)C[C@@H](NC(=O)Nc2ccc3c(c2)NC(=O)CC3)c2ccc(F)c(Cl)c2O1 ?
Response line: n

Prompt line: Further, for CN1Cc2ccc(NC(=O)N[C@@H]3CC4(CCC4)Oc4ccc(F)cc43)cc2NC1=O ?
Response line: n

Prompt line: Further, for CC1(C)C[C@@H](NC(=O)Nc2ccc3c(c2)NC(=O)N(CCO)C3)c2ccc(Br)cc2O1 ?
Response line: y

Prompt line: Further, for CN1C(=O)CCc2ccc(NC(=O)N[C@@H]3C[C@@](C)(C(F)F)Oc4ccccc43)cc21 ?
Response line: y

Prompt line: Further, for CC1(C)C[C@@H](NC(=O)Nc2ccc3c(c2)NC(=O)CC3)c2ccc(C(F)(F)F)cc2O1 ?
Response line: y

Prompt line: Further, for CCCC1(CCC)C[C@@H](NC(=O)Nc2ccc3c(c2)NC(=O)CC3)c2cc(F)ccc2O1 ?
Response line: n
